assayed.system: T1, HLA-A*03:01 (human)
T1 construct: Peptide-receptive MHC class I monomer in the UV-ligand exchange assay
experiment.description: UV peptide exchange, anti-b2m ELISA; exchange yield grade
Collected peptide exchange yield values appear next to each entry.
assay.endpoint: peptide exchange yield

INSERT INTO measurements (binder, assay_endpoint, val) VALUES
  ('AVVSHFILY', 'peptide exchange yield', '50 to 75%'),
  ('KIMEILNLK', 'peptide exchange yield', '≥ 75%'),
  ('RILEVVRQPK', 'peptide exchange yield', '≥ 75%'),
  ('KVLVDFLLK', 'peptide exchange yield', '50 to 75%'),
  ('RIVTYIVAK', 'peptide exchange yield', '50 to 75%'),
  ('GVCSTLTIK', 'peptide exchange yield', '≥ 75%'),
  ('TVTSAIVNR', 'peptide exchange yield', '50 to 75%'),
  ('VIYNQTLMK', 'peptide exchange yield', '≥ 75%'),
  ('AILVPQPPK', 'peptide exchange yield', '50 to 75%'),
  ('SMNSKALRWK', 'peptide exchange yield', '50 to 75%');
